These measurements were taken from the Immune Epitope Database (IEDB).

Target: HLA-A*24:02
Experiment: IEDB peptide-MHC binding, purified MHC/competitive/radioactivity; filed as Kd, often an IC50 or EC50 that approximates it; bounds were set here for any values at or beyond the usual limits of such assays
Conditions: source organism: Mammarenavirus whitewaterense
Metric name: Kd

Exercise: For the record `RCWLTKNGSY` , what value of Kd is listed for HLA-A*24:02?
Key: ≥ 70.3 µM

###

Target: HLA-B*18:01
Assay: IEDB peptide-MHC binding, purified MHC/direct/fluorescence; filed as Kd, often an IC50 or EC50 that approximates it; bounds were set here for any values at or beyond the usual limits of such assays
Details: source organism: Yersinia pestis
pKd: −log10 of the molar value.
Metric name: pKd

Exercise: Returns the measured pKd for the input sequence. Input: `QWSPGPGRL`
Key: ≤ 4.70
